Entries below carry reported IC50 on porcine pancreatic elastase (Sus scrofa).
Sequence (P00772 27-266): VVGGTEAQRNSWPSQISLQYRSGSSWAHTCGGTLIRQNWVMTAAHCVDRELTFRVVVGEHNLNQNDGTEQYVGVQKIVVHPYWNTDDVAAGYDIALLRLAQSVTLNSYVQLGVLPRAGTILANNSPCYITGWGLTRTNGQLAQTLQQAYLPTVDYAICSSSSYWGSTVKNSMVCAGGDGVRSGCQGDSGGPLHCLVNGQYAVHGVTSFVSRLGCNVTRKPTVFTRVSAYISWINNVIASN
Where a SMILES comes first, the peptide text is derived from it. [ ]: non-standard residue; d: D form. Oic = O=C(O)[C@@H]1C[C@@H]2CCCC[C@@H]2N1; Gly(octyl) = CCCCCCCC[C@H](N)C(=O)O; N(CH2CH2COOH)Gly = O=C(O)CCNCC(=O)O; hTyr = N[C@@H](CCc1ccc(O)cc1)C(=O)O; β3hQ = NC(=O)CC[C@H](N)CC(=O)O; Nlys = NCCCCNCC(=O)O
readoutLabel: IC50 (µM)

INSERT INTO measurements (compound, subjectoftest, censorsymbol, valuereported) VALUES
  ('CCCCCCCC[C@@H]1NC(=O)[C@@H](CCC(=O)O)NC(=O)[C@H]2CCCN2C(=O)[C@H]([C@@H](C)O)NC(=O)[C@H](CCCCN)NC(=O)[C@H](CCC(N)=O)NC(=O)[C@@H]2CCCN2C(=O)[C@@H]2CCCN2C(=O)[C@H]([C@@H](C)CC)NC(=O)[C@H](CO)NC(=O)[C@H](C)NC(=O)[C@H]([C@@H](C)O)NC(=O)[C@H](CCC(=O)O)NC1=O [Example 40] (cyclo([Gly(octyl)]ETASIPPQKT[dP][dE]))', 'porcine pancreatic elastase (Sus scrofa)', '>', 100),
  ('CC[C@H](C)[C@@H]1NC(=O)[C@H](CO)NC(=O)[C@H](C)NC(=O)[C@H]([C@@H](C)O)NC(=O)[C@H](C(C)C)NC(=O)[C@H](CCCNC(=N)N)NC(=O)[C@H](CCC(=O)O)NC(=O)[C@H]2CCCN2C(=O)[C@H]([C@@H](C)O)NC(=O)[C@H](CCCCN)NC(=O)[C@H](CCC(N)=O)NC(=O)[C@@H]2C[C@@H]3CCCC[C@@H]3N2C(=O)[C@@H]2CCCN2C1=O [Example 44] (cyclo(RVTASIP[Oic]QKT[dP]E))', 'porcine pancreatic elastase (Sus scrofa)', '>', 100),
  ('CCCCCCCC[C@@H]1NC(=O)[C@H](CCCCN)NC(=O)[C@@H](CO)NC(=O)[C@H]([C@@H](C)O)NC(=O)[C@H](CCCCN)NC(=O)[C@H](CCC(N)=O)NC(=O)[C@@H]2CCCN2C(=O)[C@@H]2CCCN2C(=O)[C@H]([C@@H](C)CC)NC(=O)[C@H](CO)NC(=O)[C@H](C)NC(=O)[C@H]([C@@H](C)O)NC(=O)[C@H](CCC(=O)O)NC1=O [Example 32] (cyclo([Gly(octyl)]ETASIPPQKT[dS]K))', 'porcine pancreatic elastase (Sus scrofa)', '=', 90),
  ('CCCCCCCC[C@@H]1NC(=O)[C@H](Cc2ccc(O)cc2)NC(=O)[C@@H](CO)NC(=O)[C@H]([C@@H](C)O)NC(=O)[C@H](CCCCN)NC(=O)[C@H](CCC(N)=O)NC(=O)[C@@H]2CCCN2C(=O)[C@@H]2CCCN2C(=O)[C@H]([C@@H](C)CC)NC(=O)[C@H](CO)NC(=O)[C@H](C)NC(=O)[C@H]([C@@H](C)O)NC(=O)[C@H](CCC(=O)O)NC1=O [Example 31] (cyclo([Gly(octyl)]ETASIPPQKT[dS]Y))', 'porcine pancreatic elastase (Sus scrofa)', '=', 52.1),
  ('CC[C@H](C)[C@@H]1NC(=O)[C@H](CO)NC(=O)[C@H](C)NC(=O)[C@H]([C@@H](C)O)NC(=O)[C@H](CCc2ccc(O)cc2)NC(=O)[C@H](CCCNC(=N)N)NC(=O)[C@@H]2CCCN2C(=O)[C@H]2CCCN2C(=O)[C@H]([C@@H](C)O)NC(=O)[C@H](CCCCN)NC(=O)[C@H](CCC(N)=O)NC(=O)[C@@H]2C[C@@H]3CCCC[C@@H]3N2C(=O)[C@@H]2CCCN2C1=O [Example 42] (cyclo(R[hTyr]TASIP[Oic]QKT[dP]P))', 'porcine pancreatic elastase (Sus scrofa)', '>', 100),
  ('CCCCCCCC[C@@H]1NC(=O)[C@@H]2CCCN2C(=O)[C@H]2CCCN2C(=O)[C@H]([C@@H](C)O)NC(=O)[C@H](CCCCN)NC(=O)C[C@H](CCC(N)=O)NC(=O)[C@@H]2CCCN2C(=O)[C@@H]2CCCN2C(=O)[C@H]([C@@H](C)CC)NC(=O)[C@H](CO)NC(=O)[C@H](C)NC(=O)[C@H]([C@@H](C)O)NC(=O)[C@H](CCC(=O)O)NC1=O [Example 36] (cyclo([Gly(octyl)]ETASIPP[β3hQ]KT[dP]P))', 'porcine pancreatic elastase (Sus scrofa)', '=', 11.1),
  ('CCCCCCCC[C@@H]1NC(=O)[C@@H]2CCCN2C(=O)[C@H]2CCCN2C(=O)[C@H](CC(N)=O)NC(=O)[C@H](CCCCN)NC(=O)[C@H](CCC(N)=O)NC(=O)[C@@H]2CCCN2C(=O)[C@@H]2CCCN2C(=O)[C@H]([C@@H](C)CC)NC(=O)[C@H](CO)NC(=O)[C@H](C)NC(=O)[C@H]([C@@H](C)O)NC(=O)[C@H](CCc2ccc(O)cc2)NC1=O [Example 48] (cyclo([Gly(octyl)][hTyr]TASIPPQKN[dP]P))', 'porcine pancreatic elastase (Sus scrofa)', '=', 0.4),
  ('CCCCCCCC[C@@H]1NC(=O)[C@@H]2CCCN2C(=O)[C@H]2CCCN2C(=O)[C@H]([C@@H](C)O)NC(=O)[C@H](CCCCN)NC(=O)[C@H](CCC(N)=O)NC(=O)CN(CCCCN)C(=O)[C@@H]2CCCN2C(=O)[C@H]([C@@H](C)CC)NC(=O)[C@H](CO)NC(=O)[C@H](C)NC(=O)[C@H]([C@@H](C)O)NC(=O)[C@H](CCC(=O)O)NC1=O [Example 35] (cyclo([Gly(octyl)]ETASIP[Nlys]QKT[dP]P))', 'porcine pancreatic elastase (Sus scrofa)', '=', 1.6),
  ('CCCCCCCC[C@@H]1NC(=O)[C@@H]2CCCN2C(=O)[C@H]2CCCN2C(=O)[C@H]([C@@H](C)O)NC(=O)[C@H](CCCCN)NC(=O)[C@H](CCC(N)=O)NC(=O)CN(CCC(=O)O)C(=O)[C@@H]2CCCN2C(=O)[C@H]([C@@H](C)CC)NC(=O)[C@H](CO)NC(=O)[C@H](C)NC(=O)[C@H]([C@@H](C)O)NC(=O)[C@H](CCC(=O)O)NC1=O [Example 34] (cyclo([Gly(octyl)]ETASIP[N(CH2CH2COOH)Gly]QKT[dP]P))', 'porcine pancreatic elastase (Sus scrofa)', '=', 15.5),
  ('CCCCCCCC[C@@H]1NC(=O)[C@H](Cc2ccc(O)cc2)NC(=O)[C@@H](CCCCN)NC(=O)[C@H]([C@@H](C)O)NC(=O)[C@H](CCCCN)NC(=O)[C@H](CCC(N)=O)NC(=O)[C@@H]2CCCN2C(=O)[C@@H]2CCCN2C(=O)[C@H]([C@@H](C)CC)NC(=O)[C@H](CO)NC(=O)[C@H](C)NC(=O)[C@H]([C@@H](C)O)NC(=O)[C@H](CCC(=O)O)NC1=O [Example 27] (cyclo([Gly(octyl)]ETASIPPQKT[dK]Y))', 'porcine pancreatic elastase (Sus scrofa)', '=', 44.1);

Taken from patent US10273267B2.
